From: PubChem BioAssay AID1963845

System: 429239-143-T-J1-PDC complex spheroid viability;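 note: luminescence signal used as surrogate measure of viable cells; spheroids exposed to compounds for seven days before readout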
Assay: Anticancer human tumor 429239-143-T-J1-PDC patient-derived small cell lung carcinoma cell line growth inhibition [POLQ]
Conditions: curve of first compound; second compound 0.316 µM
Protocol: Multicellular complex tumor spheroid response to Polymerase (POL) inhibitors (novobiocin, ART-558, RP6685) in combination with a variety of drugs and investigational agents in selected tumor cell lines The POL inhibitors (novobiocin, ART-558, and RP6685) were evaluated both individually and in combination with standard of care and investigational anticancer small molecules within a complex spheroid model of solid tumors. . […]
pIC50: −log10 of the molar value.
pIC50 listing for selected molecules.

Below are worked cases with known answers.
CCCS(=O)(=O)Nc1ccc(F)c(C(=O)c2c[nH]c3ncc(-c4ccc(Cl)cc4)cc23)c1F + Cc1cccc(N(C)C(=O)C2C(O)CCN2c2nc(C)cc(C(F)(F)F)c2C#N)c1: < 5.00
CCc1c2c(nc3ccc(O)cc13)-c1cc3c(c(=O)n1C2)COC(=O)[C@]3(O)CC + Nc1ccc(C#CCN(C(=O)Cc2ncc(C(F)(F)F)cc2C(F)(F)F)c2ccc(F)cc2)nn1: > 8.50
O=c1[nH]cc(F)c(=O)[nH]1 + Cc1cccc(N(C)C(=O)C2C(O)CCN2c2nc(C)cc(C(F)(F)F)c2C#N)c1: < 5.00
CCc1c2c(nc3ccc(O)cc13)-c1cc3c(c(=O)n1C2)COC(=O)[C@]3(O)CC + Cc1cccc(N(C)C(=O)C2C(O)CCN2c2nc(C)cc(C(F)(F)F)c2C#N)c1: > 8.50
C#Cc1c(F)ccc2cc(O)cc(-c3ncc4c(N5CC6CCC(C5)N6)nc(OCC56CCCN5CC(F)C6)nc4c3F)c12 (stereo unspecified) + Nc1ccc(C#CCN(C(=O)Cc2ncc(C(F)(F)F)cc2C(F)(F)F)c2ccc(F)cc2)nn1: < 5.00

Query block: Sample C=CC(=O)N1CCN(c2nc(=O)n(-c3c(C)ccnc3C(C)C)c3nc(-c4c(O)cccc4F)c(F)cc23)C(C)C1 (stereo unspecified) + Nc1ccc(C#CCN(C(=O)Cc2ncc(C(F)(F)F)cc2C(F)(F)F)c2ccc(F)cc2)nn1 — what was its pIC50?
Result block: < 5.00
